Reported values of activation (% of control) at 1 μM for individual entries
- Target System: Human opiate κ receptors (Homo sapiens)
- Test Summary: κ opioid receptor functional assay, [35S]GTPγS binding (assay C)
- Type: biochemical

Some entries whose results are on file:
COC(=O)N1CCN(C(=O)Cc2ccc(Cl)c(Cl)c2)[C@@H]2[C@@H](N3CCCC3)CCC[C@@H]21 (racemic); 109 % of control
O=C(O)CCC(=O)N1CCN(C(=O)Cc2ccc(Cl)c(Cl)c2)[C@H]2[C@H]1CCC[C@@H]2N1CCCC1 (racemic) [AE, reference compound]; 43 % of control
O=C(c1ccccc1)N1CCN(C(=O)Cc2ccc(Cl)c(Cl)c2)C2C(N3CCC(O)C3)CCCC21 (stereo not shown) [R, reference compound]; 63 % of control
O=C(Cc1ccc(Cl)c(Cl)c1)N1CCN(Cc2cccnc2)[C@@H]2CCC[C@H](N3CCCC3)[C@H]21 (racemic) [Y, reference compound]; 96 % of control
O=C(O)CC(=O)N1CCN(C(=O)Cc2ccc(Cl)c(Cl)c2)C2C(N3CCCC3)CCCC21 (racemic) [AD, reference compound]; 22 % of control

Query :: Suppose we examine the compound O=C(Cc1ccc(Cl)c(Cl)c1)N1CCN(Cc2cccnc2)C2CCCC(N3CCC(O)C3)C21 (mixture of isomers) [AC, reference compound] ; what activation (% of control) at 1 μM value has been reported?
Result :: 102 % of control

Query :: Suppose we examine the compound O=C(Cc1ccc(Cl)c(Cl)c1)N1CCN(Cc2cccnc2)C2CCCC(N3CCCC3)C21 (racemic) ; what activation (% of control) at 1 μM value has been reported?
Result :: 100 % of control

Query :: Suppose we examine the compound O=C(Cc1ccc(Cl)c(Cl)c1)N1CCN(Cc2cnc[nH]2)C2CCCC(N3CCCC3)C21 (stereo not shown) [AA, reference compound] ; what activation (% of control) at 1 μM value has been reported?
Result :: 89 % of control

Query :: Suppose we examine the compound O=C(Cc1ccc(Cl)c(Cl)c1)N1CCN(Cc2ccccc2)[C@H]2CCC[C@H](N3CCCC3)[C@H]21 (racemic) ; what activation (% of control) at 1 μM value has been reported?
Result :: 89 % of control

Query :: Suppose we examine the compound COC(=O)CC(=O)N1CCN(C(=O)Cc2ccc(Cl)c(Cl)c2)C2C(N3CCC(O)C3)CCCC21 (stereo not shown) [U, reference compound] ; what activation (% of control) at 1 μM value has been reported?
Result :: 86 % of control

Query :: Suppose we examine the compound O=C(O)CC(=O)N1CCN(C(=O)Cc2ccc(Cl)c(Cl)c2)C2C(N3CCCC3)CCCC21 (racemic) [Example 37] ; what activation (% of control) at 1 μM value has been reported?
Result :: 87 % of control

Query :: Suppose we examine the compound COC(=O)CCC(=O)N1CCN(C(=O)Cc2ccc(Cl)c(Cl)c2)[C@H]2[C@H]1CCC[C@@H]2N1CCCC1 (racemic) [Q, reference compound] ; what activation (% of control) at 1 μM value has been reported?
Result :: 61 % of control

Query :: Suppose we examine the compound CCC(=O)N1CCN(C(=O)Cc2ccc(Cl)c(Cl)c2)C2C(N3CCCC3)CCCC21 (stereo not shown) [N, reference compound] ; what activation (% of control) at 1 μM value has been reported?
Result :: 63 % of control

Query :: Suppose we examine the compound O=C(c1ccccc1)N1CCN(C(=O)Cc2ccc(Cl)c(Cl)c2)C2C(N3CCCC3)CCCC21 (stereo not shown) [L, reference compound] ; what activation (% of control) at 1 μM value has been reported?
Result :: 74 % of control

Query :: Suppose we examine the compound CCCCN1CCN(C(=O)Cc2ccc(Cl)c(Cl)c2)C2C(N3CCCC3)CCCC21 (stereo not shown) [W, reference compound] ; what activation (% of control) at 1 μM value has been reported?
Result :: 113 % of control

Query :: Suppose we examine the compound O=C(Cc1ccc(Cl)c(Cl)c1)N1CCN(Cc2ccccc2)[C@@H]2CCC[C@H](N3CCCC3)[C@H]21 (racemic) [H, reference compound] ; what activation (% of control) at 1 μM value has been reported?
Result :: 97 % of control

Query :: Suppose we examine the compound CCOC(=O)N1CCN(C(=O)Cc2ccc(Cl)c(Cl)c2)C2C(N3CCCC3)CCCC21 (racemic) [O, reference compound] ; what activation (% of control) at 1 μM value has been reported?
Result :: 88 % of control

Query :: Suppose we examine the compound CCC(=O)N1CCN(C(=O)Cc2ccc(Cl)c(Cl)c2)C2C(N3CCCC3)CCCC21 (racemic) [Example 25] ; what activation (% of control) at 1 μM value has been reported?
Result :: 102 % of control

---

- Target System: UniProt:P41145
- Test Summary: κ opioid receptor functional assay, [35S]GTPγS binding (assay C)
- Format: biochemical
- Experimental Conditions: 0.5 h, read-out: % activation functional assay at 1 μM
Reported values of activation at 1 µM for individual entries
Please state the figure in %; there is no need to write the unit.

Some entries whose results are on file:
O=C(N1CCCC1)N1CCN(C(=O)Cc2ccc(Cl)c(Cl)c2)C2C(N3CCCC3)CCCC21 (racemic); 109
CC(C)NC(=O)N1CCN(C(=O)Cc2ccc(Cl)c(Cl)c2)C2C(N3CCCC3)CCCC21 (racemic); 96

Query :: Any idea what activation at 1 µM came out for CS(=O)(=O)N1CCN(C(=O)Cc2ccc(Cl)c(Cl)c2)C2C(N3CCCC3)CCCC21 (racemic) on UniProt:P41145?
Result :: 91

---

Reported values of % activation functional assay at 1 μM for individual entries
- Target System: Human opiate κ receptors (Homo sapiens)
- Test Summary: κ opioid receptor functional assay, [35S]GTPγS binding (assay C)
- Format: biochemical
Please state the figure in %; there is no need to write the unit.

Some entries whose results are on file:
CN(C)C(=O)C(=O)N1CCN(C(=O)Cc2ccc(Cl)c(Cl)c2)[C@@H]2[C@@H](N3CCCC3)CCC[C@@H]21.Cl [Example 116]; 111
Cl.Cl.Cl.O=C(Cc1ccc(Cl)c(Cl)c1)N1CCN(c2cccnc2)C2CCCC(N3CCCC3)C21 (racemic) [Example 72]; 106
COC(=O)c1ccc(C(=O)N2CCN(C(=O)Cc3ccc(Cl)c(Cl)c3)[C@@H]3[C@@H](N4CCCC4)CCC[C@@H]32)cc1.Cl [Example 114]; 93
COC(=O)N1CCN(C(=O)Cc2ccc(Cl)c(Cl)c2)C2C(N3CCC(O)CC3)CCCC21 (racemic) [Example 88]; 107
Cl.O=C(OCc1ccccc1)N1CCN(C(=O)Cc2ccc(Cl)c(Cl)c2)C2C(N3CCCC3)CCCC21 (stereo not shown) [Example 95]; 104
COC(=O)N1CCN(C(=O)Cc2ccc(Cl)c(Cl)c2)C2C(N3CCC(O)C3)CCCC21 (stereo not shown) [Example 53]; 97

// switching to the query compound
Query :: Suppose we examine the compound O=C(Cc1ccc(F)c(Cl)c1)N1CCN(S(=O)(=O)Cc2ccon2)[C@H]2CCC[C@H](N3CC[C@H](O)C3)[C@H]21 [Example 148] ; what % activation functional assay at 1 μM value has been reported?
Result :: 93

---

- Target System: Human opiate κ receptors (Homo sapiens, UniProt P41145)
- Sequence (P41145 whole entry): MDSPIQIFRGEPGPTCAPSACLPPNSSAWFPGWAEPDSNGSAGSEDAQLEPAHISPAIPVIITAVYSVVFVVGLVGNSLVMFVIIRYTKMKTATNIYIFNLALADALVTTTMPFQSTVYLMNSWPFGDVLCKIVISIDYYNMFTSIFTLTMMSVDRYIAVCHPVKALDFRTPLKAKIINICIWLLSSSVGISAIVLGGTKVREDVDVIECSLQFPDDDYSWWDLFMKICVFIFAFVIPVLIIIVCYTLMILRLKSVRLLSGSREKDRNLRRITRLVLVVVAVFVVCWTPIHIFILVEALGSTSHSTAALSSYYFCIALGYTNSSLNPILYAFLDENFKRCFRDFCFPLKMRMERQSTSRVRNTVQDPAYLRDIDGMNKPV
- Type: binding
- Design: expressed in transfected cells; host or cells: HEK-293 cell membranes
Define the label as rule met when % binding at 100 nM is strictly less than 90% and as rule not met in all remaining cases.

Worked cases, answers included:
O=C(Cc1ccc(Cl)c(Cl)c1)N1CCN(S(=O)(=O)Cc2ccon2)[C@H]2CCC[C@H](N3CC[C@H](O)C3)[C@H]21 [Example 136]; rule not met
CNS(=O)(=O)N1CCN(C(=O)Cc2ccc(Cl)c(Cl)c2)C2C(N3CCC(O)C3)CCCC21.Cl (stereo not shown) [Example 131]; rule met
CCNS(=O)(=O)N1CCN(C(=O)Cc2ccc(Cl)c(Cl)c2)C2C(N3CCC(O)C3)CCCC21.Cl (stereo not shown) [Example 132]; rule met
CCOC(=O)COC(=O)N1CCN(C(=O)Cc2ccc(Cl)c(Cl)c2)C2C(N3CCCC3)CCCC21.Cl (stereo not shown) [Example 111]; rule not met

Next up:
Query :: Please check: % binding at 100 nM for CCCNS(=O)(=O)N1CCN(C(=O)Cc2ccc(Cl)c(Cl)c2)C2C(N3CCC(O)C3)CCCC21.Cl (stereo not shown) [Example 133] , strictly under 90% or not?
Result :: rule met

---

Reported values of EC50 for individual entries
- Target System: Human opiate κ receptors (Homo sapiens, UniProt P41145)
- Test Summary: κ opioid receptor functional assay, [35S]GTPγS binding (assay C)
- Type: biochemical
- Experimental Conditions: read-out: EC50 (nM) [35S]GTPγS binding

O=C(O)CC(=O)N1CCN(C(=O)Cc2ccc(Cl)c(Cl)c2)C2C(N3CCCC3)CCCC21 (racemic) [AD, reference compound]; > 1000 nM

Query :: Suppose we examine the compound CCCCN1CCN(C(=O)Cc2ccc(Cl)c(Cl)c2)C2C(N3CCCC3)CCCC21 (stereo not drawn) [W, reference compound] ; what EC50 value has been reported?
Result :: 12 nM

Query :: Suppose we examine the compound COc1ccc(CN2CCN(C(=O)Cc3ccc(Cl)c(Cl)c3)C3C(N4CCCC4)CCCC32)cc1 (stereo not drawn) [X, reference compound] ; what EC50 value has been reported?
Result :: 26 nM
